quantity: melting point

These recorded examples may help you get a feel for the data.
compound structure string	quantity	measurement
CO[C@H]1c2ccn3c(C)c(C)nc3c2N[C@@H](c2ccccc2)[C@@H]1O	melting point	161 to 162 °C
CCO[C@@H]1c2ccn3c(C)c(C)nc3c2N[C@H](c2ccccc2)[C@H]1O	melting point	188 to 190 °C
Cc1nc2c3c(ccn2c1C)[C@H](OC(C)C)[C@H](O)[C@@H](c1ccccc1)N3	melting point	168 to 169 °C

Tell me the measured melting point of CO[C@@H]1c2ccn3c(C)c(C)nc3c2N[C@@H](c2ccccc2)[C@@H]1O , please.
171 to 172 °C
